All figures here come from patent US9573887B2.

# Assayed Target: Mouse VCP (Mus musculus)
# Construct: histidine tag (N); made in house; host or cells: Sf-9 insect cells (baculovirus vector pVL1392)
# Procedure Details: ATPase activity of purified His-tagged VCP, [γ-32P]ATP, liberated phosphate by liquid scintillation
# Format: biochemical
# Experimental Setup: compounds of Examples; ATPase inhibitory activity; 500 ng VCP, 100 μM ATP, 37° C., 10 minutes
Where a name gives a salt, the structure may show the parent alone.
Observable: IC50 (nM)

Example cases with answers are listed next.
Compound	IC50 / nM
Nc1c(/N=N/c2c(Br)cc(Br)cc2Br)cc(S(=O)(=O)O)c2ccccc12 [Example 114, sodium salt]	99
COC(=O)c1sccc1/N=N/c1cc(S(=O)(=O)O)c2ccccc2c1N [Example 146, sodium salt]	1290
Nc1c(/N=N/c2ccc(OCc3ccccn3)cc2)cc(S(=O)(=O)O)c2ccccc12 [Example 136, sodium salt]	601

P: CCOc1ccncc1/N=N/c1cc(S(=O)(=O)O)c2ccccc2c1N [Example 13, sodium salt]
Q: Cc1cccc(-c2ccc(/N=N/c3cc(S(=O)(=O)O)c4ccccc4c3N)cc2)c1 [Example 126, sodium salt]
R: Cc1ccc(/N=N/c2cc(S(=O)(=O)O)c3ccccc3c2N)cc1 [Example 122, sodium salt]
S: Nc1c(/N=N/c2cccnc2-c2cccnc2)cc(S(=O)(=O)O)c2ccccc12 [Example 51, sodium salt]
Task: Please put the entries in order of rising IC50. I would appreciate it if you listed the labels in the requested order.
Result: Q, R, S, P

----------
# Assayed Target: Mouse VCP (Mus musculus, UniProt Q01853)
# Construct: histidine tag (N); made in house; host or cells: Sf-9 insect cells (baculovirus vector pVL1392)
# Sequence (Q01853 whole entry): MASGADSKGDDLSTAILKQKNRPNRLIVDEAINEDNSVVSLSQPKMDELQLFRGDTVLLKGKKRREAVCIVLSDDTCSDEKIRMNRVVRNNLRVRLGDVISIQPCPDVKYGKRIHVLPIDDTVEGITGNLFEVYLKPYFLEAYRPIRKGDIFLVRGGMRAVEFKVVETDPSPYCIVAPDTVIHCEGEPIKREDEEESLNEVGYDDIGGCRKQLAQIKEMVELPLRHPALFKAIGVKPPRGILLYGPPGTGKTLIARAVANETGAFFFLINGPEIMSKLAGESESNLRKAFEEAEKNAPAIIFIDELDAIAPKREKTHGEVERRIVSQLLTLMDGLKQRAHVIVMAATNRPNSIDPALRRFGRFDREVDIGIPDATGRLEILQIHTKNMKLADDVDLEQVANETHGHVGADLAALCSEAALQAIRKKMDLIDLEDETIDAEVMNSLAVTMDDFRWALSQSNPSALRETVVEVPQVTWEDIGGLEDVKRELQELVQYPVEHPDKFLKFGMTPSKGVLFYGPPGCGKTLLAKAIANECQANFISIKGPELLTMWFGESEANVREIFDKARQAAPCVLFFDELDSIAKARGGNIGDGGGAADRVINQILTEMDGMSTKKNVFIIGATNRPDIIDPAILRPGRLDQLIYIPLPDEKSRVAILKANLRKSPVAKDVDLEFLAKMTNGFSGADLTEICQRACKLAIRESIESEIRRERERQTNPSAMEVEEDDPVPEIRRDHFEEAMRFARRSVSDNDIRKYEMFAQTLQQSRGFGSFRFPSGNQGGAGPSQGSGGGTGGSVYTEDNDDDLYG
# Procedure Details: ATPase activity of purified His-tagged VCP, [γ-32P]ATP, liberated phosphate by liquid scintillation
# Assay type: biochemical
# Experimental Setup: compounds of Examples; ATPase inhibitory activity; 500 ng VCP, 100 μM ATP, 37° C., 10 minutes
pIC50: −log10 of the molar value. Structures can show the parent of a compound that is named as a salt.
Observable: pIC50

P: N#Cc1ccc(/N=N/c2cc(S(=O)(=O)O)c3ccccc3c2N)cc1 [Example 107, sodium salt]
Q: Nc1c(/N=N/c2ccc(C(=O)c3ccccc3)cc2)cc(S(=O)(=O)O)c2ccccc12 [Example 131, sodium salt]
Task: Two entries are listed, P and Q . Which one carries the higher pIC50? State the label of the item chosen.
Result: Q

----------
# Assayed Target: Mouse VCP (Mus musculus)
# Construct: histidine tag (N); made in house; host or cells: Sf-9 insect cells (baculovirus vector pVL1392)
# Procedure Details: ATPase activity of purified His-tagged VCP, [γ-32P]ATP, liberated phosphate by liquid scintillation
# Type: biochemical
# Experimental Setup: compounds of Examples; ATPase inhibitory activity; 500 ng VCP, 100 μM ATP, 37° C., 10 minutes
Counter-ions that a name gives are not always drawn.
Observable: IC50 (nM)

// worked examples, IC50 included
Molecule	Data Value
CSc1ccc(/N=N/c2cc(S(=O)(=O)O)c3ccccc3c2N)cc1 [Example 134, sodium salt]	327
Nc1c(/N=N/c2ccc(-c3cccnc3)nc2)cc(S(=O)(=O)O)c2ccccc12 [Example 52, sodium salt]	1390
Nc1c(/N=N/c2ccc(-c3ccccc3OCCCO)nc2)cc(S(=O)(=O)O)c2ccccc12 [Example 66, sodium salt]	232

a: Nc1c(/N=N/c2ccc(F)cc2)cc(S(=O)(=O)O)c2ccccc12 [Example 102, sodium salt]
b: CCOc1c(C=O)cc(C)cc1-c1ccc(/N=N/c2cc(S(=O)(=O)O)c3ccccc3c2N)cn1 [Example 149, sodium salt]
c: Cc1ccc(-c2ccc(/N=N/c3cc(S(=O)(=O)O)c4ccccc4c3N)cc2)cc1 [Example 125, sodium salt]
d: Nc1c(/N=N/c2ccc(-c3ccccc3OCCCNC(=O)c3cccnc3Cl)nc2)cc(S(=O)(=O)O)c2ccccc12 [Example 69, sodium salt]
e: Nc1c(/N=N/c2ccc(-c3cccnc3)cc2)cc(S(=O)(=O)O)c2ccccc12 [Example 123, sodium salt]
Task: Sort (5 molecules) by IC50: min first. Form entry: ranked labels (order as requested).
Result: d, b, e, c, a
(d: 90 nM, b: 182 nM, e: 274 nM, c: 417 nM, a: 904 nM)
